System: E. coli BW25113
test_method_notes: MIC, 2-fold broth dilution, E. coli BW25113
Type: cell-based, Escherichia coli
study_conditions: Escherichia coli; E. coli BW25113; asterisk in column >50; read-out: MIC, μM >50
endpoint_name: MIC

# count of solved cases: 5
| test_smiles | MIC |
| --- | --- |
| CN(C)c1ccc(NC(=O)c2ccc(-c3ccc(C(=O)Nc4ccc(N(C)C)c(F)c4)cc3)cc2)cc1 | > 50 µM |
| C[N+](C)(C)c1ccc(NC(=O)c2ccc(-c3ccc(C(=O)Nc4ccc([N+](C)(C)CCCCc5cn(CCOCCOCCOCCNC(=O)CCCC[C@@H]6SC[C@@H]7NC(=O)N[C@@H]76)nn5)c(F)c4)cc3)cc2)cc1F | > 50 µM |
| O=C(Nc1ccc(Nc2ccncc2)cc1)c1ccc(-c2ccc(C(=O)Nc3ccc(Nc4ccncc4)cc3)cc2)cc1 | > 50 µM |
| COC(=O)Cn1cc(CCOc2cc(NC(=O)c3ccc(-c4ccc(C(=O)Nc5ccc([N+](C)(C)C)c(F)c5)cc4)cc3)ccc2[N+](C)(C)C)nn1 | > 50 µM |
| C[N+](C)(C)c1ccc(NC(=O)c2ccnc(-c3cc(C(=O)Nc4ccc([N+](C)(C)C)cc4)ccn3)c2)cc1 | > 50 µM |

Qu. Item `C[N+](C)(C)c1ccc(NC(=O)c2ccc(-c3ccc(C(=O)Nc4ccc([N+](C)(C)CCCc5cn(CCOCCOCCOCCNC(=O)CCCC[C@@H]6SC[C@@H]7NC(=O)N[C@@H]76)nn5)c(F)c4)cc3)cc2)cc1F` : provide MIC
Ans. > 50 µM

Qu. Item `Cc1cc(NC(=O)c2ccc(-c3ccc(C(=O)Nc4ccnc(C)c4)cc3)cc2)ccn1` : provide MIC
Ans. > 50 µM

Qu. Item `CN(C)c1ccc(NC(=O)c2ccc(-c3ccc(C(=O)Nc4ccc(N(C)C)c(F)c4)cc3)cc2)cc1F` : provide MIC
Ans. > 50 µM

Qu. Item `C[n+]1ccc(NC(=O)c2ccc3cc(C(=O)Nc4cc[n+](C)cc4)ccc3c2)cc1` : provide MIC
Ans. > 50 µM

Qu. Item `CN(C)c1ccc(NC(=O)c2ccc(-c3ccc(C(=O)Nc4ccc(N(C)C)c(Br)c4)cc3)cc2)cc1Br` : provide MIC
Ans. > 50 µM

Qu. Item `CN(C)c1ccc(NC(=O)c2ccnc(-c3cc(C(=O)Nc4ccc(N(C)C)cc4)ccn3)c2)cc1` : provide MIC
Ans. > 50 µM

Qu. Item `O=C(Nc1ccc(Nc2ccncc2)cc1)[C@H]1CC[C@H](C(=O)Nc2ccc(Nc3ccncc3)cc2)CC1` : provide MIC
Ans. > 50 µM

Qu. Item `O=C(Nc1ccc(-c2ccncc2)cc1)c1ccc(C(=O)Nc2ccc(-c3ccncc3)cc2)cc1` : provide MIC
Ans. > 50 µM

###

System: E. coli BW25113
test_method_notes: MIC, 2-fold broth dilution, E. coli BW25113
Assay type: cell-based, Escherichia coli
study_conditions: Escherichia coli; E. coli BW25113; asterisk in column >50; read-out: MIC, μM >50
Reported MIC values follow for various compounds

# count of solved cases: 5
| compound | endpoint_name | test_value |
| --- | --- | --- |
| C[N+](C)(C)c1ccc(NC(=O)c2ccc(-c3ccc(C(=O)Nc4ccc([N+](C)(C)C)c(OCCCCc5cn(CCOCCOCCOCCNC(=O)CCCC[C@@H]6SC[C@@H]7NC(=O)N[C@@H]76)nn5)c4)cc3)cc2)cc1F | MIC | > 50 µM |
| C#CCN(C)c1ccc(NC(=O)c2ccc(-c3ccc(C(=O)Nc4ccc([N+](C)(C)C)c(F)c4)cc3)cc2)cc1F | MIC | > 50 µM |
| O=C(Nc1ccc(Nc2ccncc2)cc1)c1ccc(C(=O)Nc2ccc(Nc3ccncc3)cc2)c(C(F)(F)F)c1 | MIC | > 50 µM |
| C#CCCCCOc1cc(NC(=O)c2ccc(-c3ccc(C(=O)Nc4ccc(N(C)C)c(F)c4)cc3)cc2)ccc1N(C)C | MIC | > 50 µM |
| C#CCCCOc1cc(NC(=O)c2ccc(-c3ccc(C(=O)Nc4ccc(N(C)C)c(F)c4)cc3)cc2)ccc1N(C)C | MIC | > 50 µM |

Qu. Item CN(C)C1CCC(NC(=O)c2ccc(-c3ccc(C(=O)NC4CCC(N(C)C)CC4)cc3)cc2)CC1 (stereo not shown) : provide MIC
Ans. > 50 µM

Qu. Item `CN(C)c1ccc(NC(=O)c2ccc(-c3ccc(C(=O)Nc4ccc([N+](C)(C)C)c(F)c4)cc3)cc2)cc1F` : provide MIC
Ans. > 50 µM

Qu. Item `C[n+]1ccc(-c2ccc(NC(=O)c3ccc(-c4ccc(C(=O)Nc5ccc(-c6cc[n+](C)cc6)cc5)cc4)cc3)cc2)cc1` : provide MIC
Ans. > 50 µM

Qu. Item `C[N+](C)(C)c1ccc(NC(=O)c2ccc(-c3ccc(C(=O)Nc4ccc([N+](C)(C)Cc5cn(CCOCCOCCOCCNC(=O)CCCC[C@@H]6SC[C@@H]7NC(=O)N[C@@H]76)nn5)c(F)c4)cc3)cc2)cc1F` : provide MIC
Ans. > 50 µM

Qu. Item `CN(C)c1ccc(NC(=O)c2ccc(-c3ccc(C(=O)Nc4ccc(N(C)C)cc4)cc3)cc2)cc1` : provide MIC
Ans. > 50 µM

###

test_method_notes: Cytotoxicity assay (CellTiter AQueous One Solution, MTS)
Format: cell-based
study_conditions: human, HEK293 cells, 24 h incubation
endpoint_name: CC50 at 24 h (µM)
Answer format: numeric, µM implied, no suffix.

# count of solved cases: 5
| test_smiles | endpoint_name | test_value |
| --- | --- | --- |
| C[n+]1ccc(Nc2ccc(NC(=O)c3ccc(C(=O)Nc4ccc(Nc5cc[n+](C)cc5)cc4)c([N+](=O)[O-])c3)cc2)cc1 | CC50 at 24 h | 350 |
| COc1cc(NC(=O)c2ccc(-c3ccc(C(=O)Nc4ccc([N+](C)(C)C)c(OC)c4)cc3)cc2)ccc1[N+](C)(C)C | CC50 at 24 h | 650 |
| C[n+]1ccc(Nc2ccc(NC(=O)c3ccc(C(=O)Nc4ccc(Nc5cc[n+](C)cc5)cc4)c(C(F)(F)F)c3)cc2)cc1 | CC50 at 24 h | 350 |
| C[N+](C)(C)c1ccc(NC(=O)c2ccc(-c3ccc(C(=O)Nc4ccc([N+](C)(C)C)c(Cl)c4)cc3)cc2)cc1Cl | CC50 at 24 h | 330 |
| C[n+]1ccc(Nc2ccc(NC(=O)c3ccc(C(=O)Nc4ccc(Nc5cc[n+](C)cc5)cc4)c(OC(F)(F)F)c3)cc2)cc1 | CC50 at 24 h | 290 |

Now consider a different compound.
Qu. Item `C[n+]1ccc(Nc2ccc(NC(=O)c3ccc(C(=O)Nc4ccc(Nc5cc[n+](C)cc5)cc4)c(N)c3)cc2)cc1` : provide CC50 at 24 h
Ans. 480

###

Reported MIC values follow for various compounds
Tested on: E. coli BW25113
test_method_notes: MIC, 2-fold broth dilution, E. coli BW25113
Type: cell-based, Escherichia coli
study_conditions: Escherichia coli; E. coli BW25113; asterisk in column >50; read-out: MIC, μM >50

# count of solved cases: 2
| compound | MIC |
| --- | --- |
| O=C(Nc1ccc(Nc2ccncc2)cc1)c1ccc(C(=O)Nc2ccc(Nc3ccncc3)cc2)cc1 [Example 9] | > 50 µM |
| C[N+](C)(C)c1ccc(NC(=O)c2ccc(-c3ccc(C(=O)Nc4ccc([N+](C)(C)C)c(OCCCCCCCCc5cn(CCOCCOCCONC(=O)CCCC[C@@H]6SC[C@@H]7NC(=O)N[C@@H]76)nn5)c4)cc3)cc2)cc1F [Example 135] | > 50 µM |

Now consider a different compound.
Qu. Item Cc1cc(C(=O)Nc2ccc([N+](C)(C)C)cc2)ccc1-c1ccc(C(=O)Nc2ccc([N+](C)(C)C)cc2)cc1 [Example 42] : provide MIC
Ans. > 50 µM
